Target: glucosylceramide synthase (Homo sapiens, UniProt Q16739)
Construct: made in house; host or cells: Expi293F cells (transient expression, pcDNA3.3-TOPO vector); microsome fraction used as enzyme source
Sequence (Q16739 1-394): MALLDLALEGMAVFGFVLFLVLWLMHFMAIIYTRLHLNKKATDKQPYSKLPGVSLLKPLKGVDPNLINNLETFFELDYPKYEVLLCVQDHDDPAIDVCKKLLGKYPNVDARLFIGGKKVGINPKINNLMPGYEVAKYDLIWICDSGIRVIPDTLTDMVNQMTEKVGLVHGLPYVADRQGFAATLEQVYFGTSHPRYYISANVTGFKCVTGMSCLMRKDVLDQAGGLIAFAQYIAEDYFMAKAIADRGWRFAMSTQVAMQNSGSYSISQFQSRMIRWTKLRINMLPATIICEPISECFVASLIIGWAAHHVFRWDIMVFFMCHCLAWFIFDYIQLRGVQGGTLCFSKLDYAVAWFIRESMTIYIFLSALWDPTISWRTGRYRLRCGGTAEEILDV
Test: Glucosylceramide synthase (GCS) enzyme assay, microsome fraction, C8 glucosylceramide quantified by Rapidfire MS/MS
Type: biochemical
Details: test compound 10 μM; 1.7 μM UDP-glucose, 3 μM C8 ceramide; room temperature 60 min; read-out: GCS enzyme inhibitory rate at 10 μM (%) (% of control)
So I've got a bunch of compounds here, and I need their inhibition at 10 µM values.
Give bare numbers, in %.

Previously resolved entries follow.
Fc1ccc(N2Cc3ccnc(-c4ccc(F)cc4OCC(F)(F)F)c3C2)cc1 ... 92
O=C1c2ccnc(-c3ccc(F)cc3OCC(F)(F)F)c2CN1c1cnc(OC(F)F)nc1 ... 94
CC(C)(C#N)c1ccc(N2Cc3c(ccnc3-c3ccc(F)cc3OCC(F)F)C2=O)cc1 ... 100

// inhibition at 10 µM (glucosylceramide synthase (Homo sapiens, UniProt Q16739)) for COc1ccccc1-c1nccc2c1CN(c1ccc(C(F)(F)F)cc1)C2=O = 95
